- measurement.target: HLA-A*02:01
- protocol.details: IEDB peptide-MHC binding, purified MHC/competitive/radioactivity; bounds were set here for any values at or beyond the usual limits of such assays
- stated.conditions: source organism: Homo sapiens
recorded.metric: IC50 (nM)

Use the examples below as a reference point.
1) RIWSWLLGA	100
2) FLCWGPFFL	38.5
3) YVITTQHWL	104
4) VVMGTLVAL	66.7

[1] RLMKQDFSV
[2] ALLAGLVSL
[3] YAIDLPVSV
[4] SLHNLVHSFL
[5] SLDDYNHLV
Ask: Sort (5 sequences) by IC50: min first. Ranked list of labels, please, in the requested order.
Reply: 3, 5, 1, 2, 4
